- TGT: 3-methylaspartate ammonia lyase (CaMAL) (Citrobacter amalonaticus, UniProt O66145)
- Construct: C-terminal His-tag
- Sequence (O66145 whole entry): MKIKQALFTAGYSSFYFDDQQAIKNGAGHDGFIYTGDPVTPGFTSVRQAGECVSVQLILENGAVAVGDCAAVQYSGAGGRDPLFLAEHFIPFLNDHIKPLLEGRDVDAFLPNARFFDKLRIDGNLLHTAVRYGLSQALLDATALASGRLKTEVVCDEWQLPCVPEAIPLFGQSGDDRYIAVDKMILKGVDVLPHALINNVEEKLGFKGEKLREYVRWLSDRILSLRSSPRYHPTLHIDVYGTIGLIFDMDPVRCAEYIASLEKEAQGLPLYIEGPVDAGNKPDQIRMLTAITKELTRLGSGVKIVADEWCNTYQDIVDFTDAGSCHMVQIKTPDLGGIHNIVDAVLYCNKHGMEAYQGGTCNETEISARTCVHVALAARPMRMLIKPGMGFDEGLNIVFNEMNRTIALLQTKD
- METHOD: steady-state inhibition kinetics of 3-methylaspartate deamination (UV assay)
- Assay type: biochemical
REPORTED_PROPERTY: Ki (µM)
Record the value in µM, omitting the unit from your answer.

Form field: reported Ki of NCCC[C@H](N)CC(=O)O
1700

====

- TGT: 3-methylaspartate ammonia lyase (CaMAL) (Citrobacter amalonaticus, UniProt O66145)
- Construct: C-terminal His-tag
- METHOD: steady-state inhibition kinetics of 3-methylaspartate deamination (UV assay)
- Type: biochemical
- SETUP_CONDITIONS: read-out: Ki
REPORTED_PROPERTY: pKi
pKi (log units): -log10 of the concentration in mol/L.

Form field: reported pKi of NC(CC(=O)O)CC(=O)O
1.15
